# ASSAY_SUMMARY: in vitro
# CONDITION_INFO: mouse, liver microsomes, t (1 / 2)
# Description: DNDI: half life in mouse liver microsomes at a concentration of 1uM
Entries whose half-life at 1 µM is below 30 min take y; entries at or above 30 min take n.

Would you please look over these solved cases?
MOLECULE	ASSIGNED_CATEGORY
O/N=C(\CNC1CCCCC1)c1ccccc1	y
CCCCc1ccc(-c2nc(CNC3CC(C)CC(C)(C)C3)co2)cc1 (stereo not given)	n
CCC(C)C(NCc1ccco1)c1nc(-c2ccccc2)c(N2CCCCC2)o1 (stereo not given)	y
O/N=C(\Nc1ccccc1)c1ccccc1-c1ccccc1	y
CCCCc1ccc(-c2nc(CNCCCN(C)C)co2)cc1	n

// query is_below(half-life at 1 µM, 30 min) for CC1CC(NCc2coc(-c3ccc(OC(C)C)cc3)n2)CC(C)(C)C1 (stereo not given) ?
// result n

// query is_below(half-life at 1 µM, 30 min) for `COc1ccccc1/C(=N/O)NC1CCCCC1` ?
// result y

// query is_below(half-life at 1 µM, 30 min) for CCCCCC(C)NCc1coc(-c2ccc(OCC(C)C)cc2)n1 (stereo not given) ?
// result n

// query is_below(half-life at 1 µM, 30 min) for `CCc1ccc(/C(=N/O)NC2CCCCC2)cc1` ?
// result y

// query is_below(half-life at 1 µM, 30 min) for CCc1ccc(Oc2ncccc2/C(=N\O)NC2CCCC[C@@H]2N)cc1 (stereo not given in full) ?
// result n

###

# ASSAY_SUMMARY: DNDI: Cytotoxicity against L929 mouse fibroblasts, CYTO-SP, 24 hour
# Assay type: toxicity, cell-based
# CONDITION_INFO: mouse, L929 mouse fibroblasts
The following compounds are listed with their measured IC50 at 24 h values.

Check out these entries, answers already filled in.
COMPOUND	VALUE_REPORTED
C[C@@H](NCc1coc(-c2ccc(Cl)cc2)n1)C1CCCCC1	> 50 µg/mL
CCCCCC(C)NCc1csc(-c2ccccc2)n1 (configuration not stated)	18 µg/mL
Fc1ccccc1Oc1ncccc1CNC1CCCCC1	> 50 µg/mL

Please look at the following compound next.
// query Give its IC50 at 24 h value. Item: `CCCCNCc1coc(-c2ccc(C(C)(C)C)cc2)n1`
// result 28.1 µg/mL

###

The following compounds are listed with their measured chromatographic logD values.
# ASSAY_SUMMARY: DNDI: Lipophilicity measured in Chromatographic hydrophobicity index (CHI) assay, pH 7.4
# Type: physicochemical
# CONDITION_INFO: buffer
Just the number, please, no unit attached.

// query Give its chromatographic logD value. Item: `CCCCc1ccc(-c2nc(CNCCCN(C)C)co2)cc1`
// result 5.07

// query Give its chromatographic logD value. Item: CCCCCC(C)NCc1coc(-c2ccc(OCCCC)cc2)n1 (stereo not drawn)
// result 5.01

// query Give its chromatographic logD value. Item: `CCCCc1ccc(-c2nc(CNCCN3CCCC3)co2)cc1`
// result 4.89

###

# ASSAY_SUMMARY: DNDI: Cytotoxicity against L929 mouse fibroblasts, 72 hour.
# Type: toxicity, cell-based
# CONDITION_INFO: mouse, L929 mouse fibroblasts
PROPERTY_MEASURED: IC50 at 72 h

Check out these entries, answers already filled in.
COMPOUND	IC50 at 72 h
CCCCOc1ccc(-c2nc(CNC3CCCCCC3)co2)cc1	< 3.13 µg/mL
O/N=C(\NC1CCCCC1)c1ccccc1Oc1ccccc1	> 10 µg/mL

// query Give its IC50 at 72 h value. Item: `O/N=C(\NC1CCCCC1)c1ccsc1`
// result > 10 µg/mL

// query Give its IC50 at 72 h value. Item: Cc1ccc(CNC(c2ccccc2)c2nc(Cc3ccccc3)c(N3CCOCC3)o2)cc1 (stereo not drawn)
// result > 10 µg/mL

// query Give its IC50 at 72 h value. Item: `CCOc1ccc(-c2nc(CN[C@]34C[C@H]5C[C@H](C[C@H](C5)C3)C4)co2)cc1`
// result 28.4 µg/mL
